experimental-target: IRAK4 (Homo sapiens, UniProt Q9NWZ3)
Construct: endogenous in cells; host or cells: OCI-LY10
Sequence (Q9NWZ3 whole entry): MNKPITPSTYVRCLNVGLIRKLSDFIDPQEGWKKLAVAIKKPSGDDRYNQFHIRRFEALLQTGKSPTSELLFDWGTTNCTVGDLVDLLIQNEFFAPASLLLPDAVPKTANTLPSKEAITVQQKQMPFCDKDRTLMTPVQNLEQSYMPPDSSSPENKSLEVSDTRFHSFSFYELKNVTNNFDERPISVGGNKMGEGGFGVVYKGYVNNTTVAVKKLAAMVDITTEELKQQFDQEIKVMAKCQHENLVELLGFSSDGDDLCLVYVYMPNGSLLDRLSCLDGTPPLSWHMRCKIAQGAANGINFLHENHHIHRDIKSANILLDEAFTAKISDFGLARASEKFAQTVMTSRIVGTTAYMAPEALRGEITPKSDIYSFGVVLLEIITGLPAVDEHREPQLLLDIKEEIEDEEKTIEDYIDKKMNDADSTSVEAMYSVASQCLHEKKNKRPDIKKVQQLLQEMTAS
procedure-details: IRAK4 MSD degradation in OCI-LY10
Type: cell-based
assay-context: OCI-LY10 cells, 24 hrs, Meso Scale Discovery
property-name: DC50

compound	measurement
Cn1c(=O)n(C2CCC(=O)NC2=O)c2cccc([C@@H]3CCN(C[C@H]4CC[C@H](n5cc6cc(NC(=O)c7cncc(C#N)c7)ccc6n5)CC4)C[C@H]3F)c21 (stereo partly shown)	< 10 nM
COc1cn2nc([C@H]3CC[C@H](CN4CCC5(CCN(c6cccc7c6n(C)c(=O)n7C6CCC(=O)NC6=O)CC5)C(F)(F)C4)CC3)cc2cc1NC(=O)c1cncc(C#N)c1 (stereo partly shown)	> 200 nM
O=C1CCC(Nc2cccc(N3CC(CO[C@@H]4CCN(C[C@H]5CC[C@H](n6cc(NC(=O)c7cnn8ccc(N9C[C@H]%10C[C@@H]9CO%10)nc78)c(C(F)F)n6)CC5)C[C@@H]4F)C3)c2)C(=O)N1 (stereo partly shown)	10 to 100 nM
Cn1c(=O)n(C2CCC(=O)NC2=O)c2cccc([C@@H]3CCN(C[C@H]4CC[C@H](n5cc6cc(NC(=O)c7cccnn7)ccc6n5)CC4)C[C@H]3F)c21 (stereo partly shown)	10 to 100 nM
CN1C(=O)CCC(n2c(=O)n(C)c3c([C@@H]4CCN(C[C@H]5CC[C@H](n6cc7cc(NC(=O)c8cncc(C(F)(F)F)n8)ccc7n6)CC5)CC4(F)F)cccc32)C1=O (stereo partly shown)	> 200 nM
COc1cc2nn([C@H]3CC[C@H](CN4CCC5(CCN(c6cccc7c6n(C)c(=O)n7C6CCC(=O)NC6=O)CC5)C(F)(F)C4)CC3)cc2cc1C(=O)Nc1cccc(C(F)(F)F)n1 (stereo partly shown)	> 200 nM
CN(C[C@H]1CC[C@H](n2cc(NC(=O)c3cnn4ccc(N5C[C@H]6C[C@@H]5CO6)nc34)c(C(F)F)n2)CC1)[C@H]1CCN(c2cccc3c2n(C)c(=O)n3C2CCC(=O)NC2=O)C[C@H]1F (single isomer, unassigned)	< 10 nM
Cn1c(=O)n(C2CCC(=O)NC2=O)c2cccc([C@@H]3CCN(C[C@H]4CC[C@H](n5cc6cc(NC(=O)c7nccc(C(F)(F)F)n7)ccc6n5)CC4)C[C@H]3F)c21 (stereo partly shown)	> 200 nM
COc1cc2nc([C@H]3CC[C@H](CN(C)[C@@H]4CCN(c5cccc6c5n(C)c(=O)n6C5CCC(=O)NC5=O)C[C@H]4F)CC3)cn2cc1NC(=O)c1cncc(C(F)(F)F)n1 (single isomer, unassigned)	< 10 nM
COc1ccc2c(c1N1CC[C@@H](N(C)C[C@H]3CC[C@H](n4cc(NC(=O)c5cnn6cccnc56)c(C(F)F)n4)CC3)C(F)(F)C1)n(C)c(=O)n2C1CCC(=O)NC1=O (single isomer, unassigned)	10 to 100 nM
